Biological target: T1, HuCD3E (Homo sapiens, UniProt P07766 23-126, limits assumed)
T1 construct: Recombinant analyte in SPR and antigen in ELISA; also called human CD3; human CD3 epsilon
T1 sequence (P07766 23-126 limits assumed): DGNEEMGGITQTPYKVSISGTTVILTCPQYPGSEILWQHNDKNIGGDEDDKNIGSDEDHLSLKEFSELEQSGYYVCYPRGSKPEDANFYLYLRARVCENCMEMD
Test: SPR, Biacore 8K; CD3 Affinity column: Med; lower end of the range
pKd: −log10 of the molar value.
Consider the following binders; for each one, report its pKd.

Sample answers from the record:
>  <Binder>
47D10-V7-v5.2 (antibody, V domains shown) VH: EVQLVESGGGLVQPGGSLKLSCAASGFTFNTYAMNWVRQAPGKGLEWVARIRSKYNNYATYKADSVKDRFTISRDDSKNTAYLQMNSLKTEDTAVYYCVRHGNFGNSYVSWFAYWGQGTLVTVSS VL: QTVVTQEPSLTVSPGGTVTLTCRSSTGAVTTSNYANWVQQKPGQAFRGLIGGTNKRAPGVPARFSGSLLGGKAALTLSGVQPEDEAIYFCALWYSNLWVFGGGTKLTVL

>  <pKd>
≤ 8.00

$$$$
>  <Binder>
32G4-V8-v5.4 (antibody, V domains shown) VH: EVQLVESGGGLVQPGGSLKLSCAASGFTFNTYAMNWVRQAPGKGLEWVARIRSKYNNYATYYWDSVKDRFTISRDDSKNTAYLQMNSLKTEDTAVYYCVRHGNFGNSYVSWFAYWGQGTLVTVSS VL: QTVVTQEPSLTVSPGGTVTLTCRSSTGAVTTSNYANWVQQKPGQAFRGLIGGTNKRAPGVPARFSGSLLGGKAALTLSGVQPEDEAIYFCALWYSNLWVFGGGTKLTVL

>  <pKd>
≤ 8.00

$$$$

Request: // fetch pKd given entry 32G4-V8-v5.3 (antibody, V domains shown) VH: EVQLVESGGGLVQPGGSLKLSCAASGFTFNTYAMNWVRQAPGKGLEWVARIRSKYNNYATYYADKVKDRFTISRDDSKNTAYLQMNSLKTEDTAVYYCVRHGNFGNSYVSWFAYWGQGTLVTVSS VL: QTVVTQEPSLTVSPGGTVTLTCRSSTGAVTTSNYANWVQQKPGQAFRGLIGGTNKRAPGVPARFSGSLLGGKAALTLSGVQPEDEAIYFCALWYSNLWVFGGGTKLTVL
Response: ≤ 8.00
